Kindly state Percent Effect for each of the entries shown.
Species on record: Homo sapiens
Assay: To identify inhibition of the IFN signalling (Jak-Stat) pathway via expression of an eGFP reporter gene under the control of an IFN-stimulated response element (ISRE) containing MxA promoter.
Format: functional
Design: scale not given: direction of the effect not stated beside the values
Settings: 30 µM
Numbers only, in %.

Some solved cases for reference:
CCN(CC1CCCO1)C(=O)Nc1cc(C(=O)OC)ccc1F (configuration not stated) :: 0.11
Cn1ccc(C(=O)N2CCN(c3ncccn3)CC2)cc1=O :: 4.12
CC(=O)N1CC(=O)N(c2cnn(C)c2)CC12CCN(CC1CC1)C2 (configuration not stated) :: -7.14

Each of the following entries comes with a recorded value; kindly state Percent Effect for each.
1. CC(C)CN1CCCn2nc(CNC(=O)CCN)cc2C1
2. CCc1n[nH]c(C2CN(C(=O)c3nc(C)ncc3Cl)CCO2)n1 (configuration not stated)
3. CCn1cc(S(=O)(=O)N(C)Cc2c(Br)cnn2CC)c(C)n1
4. N#Cc1ccccc1N1CCCN(C(=O)CCc2nccs2)CC1
5. CC(C)Cc1cc(NC(=O)c2ccc[nH]2)n(C)n1
6. CC(C)CCC(C)NC(=O)c1ccc(OCC(N)=O)cc1 (configuration not stated)
7. CC(C)NC(=O)[C@H]1C[C@@H]2[C@@H](C1)OCCN2Cc1cnn(C)c1
8. CCN1CCC2(CCC(=O)N2Cc2cccc(C)n2)CC1

7.88
2.84
20.6
17.5
0.305
11.1
-6.54
-13.7

Each of the following entries comes with a recorded value; kindly state Percent Effect for each.
1. Cc1cnn(CCC(=O)N2CCCC(c3nc(C)no3)C2)c1 (configuration not stated)
2. CC(C)c1noc(CCCC(=O)N2CCC(Cc3cccnc3)CC2)n1
3. O=C(NCCCn1cncn1)N1CCCC(N2CCCC2)C1 (configuration not stated)

[11.1, 16.4, 14.6]

###

Biological target: Protein translocase subunit SecA (Escherichia coli (strain K12))
Experiment: Assay to Identify E. coli SecA ATPase Inhibitors
Assay type: functional
Parameters: scale not given: direction of the effect not stated beside the values
Conditions: 30 µM
Entries with a potency or affinity are not part of this list.
Kindly state Percent Effect for each of the entries shown.
One number for each entry, in %.

Cn1cc(-c2nnn3c2COC(CNCc2nccs2)C3)cn1 (configuration not stated) :: -3.81
O=C(NCC1CC1)N1CCN(Cc2ccc3c(c2)OCCO3)CC1 :: -2.95

Each of the following entries comes with a recorded value; kindly state Percent Effect for each.
1. CCn1cnnc1C1CCN(C(=O)C(OC)c2ccccc2)CC1 (configuration not stated)
2. O=C(NCCNc1ccccn1)N1CCSCC1
3. CC(=O)N1CCc2c(nc(-c3ccccn3)nc2N(C)CC(O)CO)C1 (configuration not stated)
4. CC(C)(C)c1noc(CN2CCCN(Cc3cccs3)CC2)n1
5. Cc1cccc(N2CC[C@@H]3CN(Cc4csc(C)n4)CCO[C@@H]3C2)n1

1. -2.02
2. -7.13
3. -7.71
4. -4.7
5. -6.02

Each of the following entries comes with a recorded value; kindly state Percent Effect for each.
1. O=C(NCC1CCOC1)N1CCN(Cc2ccc3c(c2)CCO3)CC1 (configuration not stated)
2. CCNc1cc2c(nn1)CCN(C(=O)Cc1c(C)noc1C)C2
3. COCC(=O)N1CCC2(CC1)CCN(Cc1ccccn1)C2=O
4. Cc1ccc([C@@H]2CN(C(=O)c3cccnn3)C[C@H]2NC(=O)C2CC2)cc1
5. CC(=O)NCC(=O)N1Cc2nccn2CC(Cn2cccn2)C1 (configuration not stated)
6. CCCNC(=O)CNc1cc(C(=O)N2CCSCC2)ccc1C

1: -2.3; 2: -9.15; 3: -4.26; 4: -10.6; 5: -2.33; 6: -4.74

Each of the following entries comes with a recorded value; kindly state Percent Effect for each.
1. Cn1cc(C2COC3(CCN(C(=O)Cn4cccn4)CC3)C2)cn1 (configuration not stated)
2. Cc1nc(C(C)(C)NC(=O)Nc2cccc(C#N)c2)no1
3. CN(C)C[C@H]1OC[C@@H]2CCN(S(=O)(=O)c3ccccc3)C[C@@H]21
4. CNS(=O)(=O)CCCN1CCCC1c1cc(C)on1 (configuration not stated)

[-2.57, -4.07, -7.48, -2.37]

Each of the following entries comes with a recorded value; kindly state Percent Effect for each.
1. CC(C)CN1CCc2[nH]cnc2C12CCN(C(=O)c1cccnc1)CC2
2. Cc1cnc2n(c1=O)CC(C(=O)NC1CC1)CS2 (configuration not stated)
3. CC(C)N1CCC(Cc2cc(-c3ccccc3C(=O)O)ncn2)CC1
4. c1cncc(-c2nccc(CN3CCCC3)n2)c1
5. Cc1cccc(C)c1OCCC(=O)N1CCC(c2nncn2C)CC1
6. CC(NC(=O)NCCCn1ccnc1)c1ccc2c(c1)OCCCO2 (configuration not stated)
7. Cc1ncccc1OC1(C(=O)NCCNc2ccccc2)CCNCC1

1. -8.51
2. -4.55
3. -1.66
4. -0.958
5. -6.09
6. -3.41
7. -3.81

Each of the following entries comes with a recorded value; kindly state Percent Effect for each.
1. Cc1ccc(C(=O)N2CCC3(CC2)CC(N2CCCC2)C3)cc1
2. CCC1CCCCCN1C(=O)c1nnc2ccccc2c1N (configuration not stated)

-4.52
-4.89

Each of the following entries comes with a recorded value; kindly state Percent Effect for each.
1. Cc1ccccc1OCCC(=O)N1CCCC(n2cncn2)C1 (configuration not stated)
2. CC(=O)N1CCCN(CC(C)(O)c2cccc(C(F)(F)F)c2)CC1 (configuration not stated)
3. CC(C)CCC(C)NC(=O)c1ccc(OCC(N)=O)cc1 (configuration not stated)
4. COc1ncccc1NC(=O)NCC1CCS(=O)(=O)C1 (configuration not stated)

-5.79
-3.98
0.307
-2.59

Each of the following entries comes with a recorded value; kindly state Percent Effect for each.
1. O=C(NCc1cc[nH]n1)NCC(c1ccco1)N1CCCC1 (configuration not stated)
2. CS(=O)(=O)c1ccccc1C(=O)NCC1Cc2ccccc2O1 (configuration not stated)
3. CC(=O)N1CCc2c(nc(-c3ccncc3)nc2N(C)CC(O)CO)C1 (configuration not stated)

[-3.53, -1.96, -4.98]

Each of the following entries comes with a recorded value; kindly state Percent Effect for each.
1. CCSc1ccc(C(=O)Nc2c(C)nn(C(C)C)c2C)cn1
2. CCCS(=O)(=O)N1CCC2(CN(c3cnn(C)c3)C(=O)CN2C)C1 (configuration not stated)
3. Cc1cnn(CC2CCCN2C(=O)c2cc3ccccc3[nH]2)c1 (configuration not stated)
4. CNC(=O)Cn1cc(C#N)c(=O)c2cc(Br)ccc21
5. CCc1cnc(CN2CCC(N(C)Cc3noc(C4CC4)n3)C2)o1 (configuration not stated)
6. O=C(NC1(c2nnn(CCO)n2)CCCC1)c1ccccc1

[-9.54, 1.02, -8.63, -5.47, -3.48, -3.12]

###

Target: Arginase-2, mitochondrial (Homo sapiens) (UniProt P78540)
Sequence (P78540 whole entry): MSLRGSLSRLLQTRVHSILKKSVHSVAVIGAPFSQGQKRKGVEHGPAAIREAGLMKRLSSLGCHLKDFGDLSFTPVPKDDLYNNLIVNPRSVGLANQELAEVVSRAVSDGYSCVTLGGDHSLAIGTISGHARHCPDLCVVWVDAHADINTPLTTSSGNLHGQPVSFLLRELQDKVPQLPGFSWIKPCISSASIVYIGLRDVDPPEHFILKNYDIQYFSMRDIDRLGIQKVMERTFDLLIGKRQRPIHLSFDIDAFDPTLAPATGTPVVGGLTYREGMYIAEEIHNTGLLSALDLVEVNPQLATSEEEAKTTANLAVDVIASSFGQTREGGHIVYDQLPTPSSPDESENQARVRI
Assay: in vitro enzyme assay to detect the production of urea directly proportional to the activity of Arginase II; note: in the data most compounds retested in dose-response had high values
Assay type: functional
Set-up: scale not given: direction of the effect not stated beside the values
Conditions: 33.3 µM
MEASUREMENT NAME: Percent Effect (%)
Give bare numbers, in %.

Some solved cases for reference:
CC(C)NC(=O)CC1COC2(CCN(Cc3ccccc3)CC2)C1 (stereo unspecified) :: 2.28
O=C1COc2c(cccc2C(=O)N2CCCCC2Cn2cccn2)N1 (stereo unspecified) :: 3.16
CCNC(c1ccc(OC)cc1)c1cccnc1 (stereo unspecified) :: -0.645

Each of the following entries comes with a recorded value; kindly state Percent Effect for each.
1. CCn1cc(S(=O)(=O)N(C)Cc2c(Br)cnn2CC)c(C)n1
2. COC(=O)CCc1c(C)nc2cc(O)nn2c1C
3. O=C(CCc1ccccc1F)NS(=O)(=O)c1ccc2c(c1)OCCCO2
4. CN1CCN(C2CCN(CC(=O)NCC(F)(F)F)CC2)C1=O
5. Cn1cc(CN2C[C@@H]3COC[C@]3(CNC(=O)c3ccsc3)C2)cn1
6. COc1ncccc1NC(=O)c1cccc(C)n1
7. CCOCCCNC(=O)c1ccccc1S(C)(=O)=O

[3.54, -3.92, -4.95, -3.8, -5.26, 2.05, -8.28]

Each of the following entries comes with a recorded value; kindly state Percent Effect for each.
1. CC(C)C(NC(=O)NCCNc1ccccn1)c1cccs1 (stereo unspecified)
2. COC(=O)c1sccc1S(=O)(=O)N1CCC(Oc2cccnn2)CC1

[4.98, 1.36]

Each of the following entries comes with a recorded value; kindly state Percent Effect for each.
1. CC(C)Nc1ccc2nc(C3CCN(C(C)C)CC3)nn2c1
2. Cc1cc(C)n(CC2CCCCN2C(=O)c2cnn(C)c2)n1 (stereo unspecified)
3. Cn1cnc2c1C(COCc1ccccc1)N(Cc1ccncc1)CC2 (stereo unspecified)
4. CN(Cc1cncnc1)Cc1cn2c(n1)CN(C1CCOC1)CC2 (stereo unspecified)
5. CCN1CCN(Cc2ccnc(-c3cccnc3)n2)CC1

[26.2, -2.22, -25.6, -21.7, -1.62]

Each of the following entries comes with a recorded value; kindly state Percent Effect for each.
1. c1cnn(CC2CN(Cc3nc(-c4ccsc4)no3)CCO2)c1 (stereo unspecified)
2. CCOc1ncccc1CNC(=O)Nc1ccc(N(C)C)nc1
3. CN(C)C(=O)CS(=O)(=O)Cc1cc(Cl)c2c(c1)OCCCO2
4. COc1cccc(OCC2CCCN(C3CCN(C(C)=O)CC3)C2)c1 (stereo unspecified)

1. 0.766
2. -2.66
3. 3.24
4. 1.43

Source listed as ChEMBL document CHEMBL3988442.
